- assay-procedure: log P by HPLC on reversed-phase column (C18), EEC directive 79/831 Annex V.A8
- Format: physicochemical
- particulars: reversed-phase HPLC column (C18); acidic range, pH 2.7, HPLC C18, 43° C.; preparation examples; read-out: log P[a]
reported-endpoint: chromatographic logP

- CCNC(=O)c1ncc(C(=O)N(C)c2cccnc2)n1C: 0.8

---

- assay-procedure: log P by HPLC on reversed-phase column (C18), EEC directive 79/831 Annex V.A8
- Type: physicochemical
- particulars: pH 7.8
reported-endpoint: logP [n]

- CN(C(=O)c1cnc(C(=O)NCCO)n1C)c1cccnc1: 0.45
- CCN(C)C(=O)c1ncc(C(=O)N(C)c2cccnc2)n1C: 0.87
- CCN(C(=O)c1cnc(C2OCCO2)n1C)c1cccnc1: 0.98
- CCCCN(/N=C/c1ncc(C(=O)N(C)c2cccnc2)n1C)C(=O)OCC: 2.06
- C=CCO/N=C/c1ncc(C(=O)N(C)c2cccnc2)n1C: 1.55
- CN(C(=O)c1cnc(C(=O)NCC2CC2)n1C)c1cccnc1: 1.39
- CC(C)CO/N=C/c1ncc(C(=O)N(C)c2cccnc2)n1C: 2.07
- CN(C(=O)c1cnc(C(=O)NC(C)(C)C)n1C)c1cccnc1: 1.62
- COC(=O)CNC(=O)c1ncc(C(=O)N(C)c2cccnc2)n1C: 0.93
- CN(C(=O)c1cnc(C2OCCS2)n1C)c1cccnc1 (stereo not shown): 0.97

---

Measured logP [n], listed per entry.
- assay-procedure: log P by HPLC on reversed-phase column (C18), EEC directive 79/831 Annex V.A8
- Assay type: physicochemical
- particulars: pH 7.8
reported-endpoint: logP [n]

* CC(C)NC(=O)c1ncc(C(=O)N(C)c2cccnc2)n1C [I-1-032] | 1.26
* CCO/N=C/c1ncc(C(=O)N(CC)c2cccnc2)n1C [I-1-051] | 1.66
* CO/N=C/c1ncc(C(=O)N(C)c2cccnc2)n1C [I-1-001] | 1.1
* CN(C(=O)c1cnc(C2OCC3(CC3)CO2)n1C)c1cccnc1 [I-1-015] | 1.29
* CCO/N=C/c1ncc(C(=O)N(C)c2cccnc2)n1C [I-1-004] | 1.41
* CCC1COC(c2ncc(C(=O)N(C)c3cccnc3)n2C)O1 (stereo not shown) [I-1-011] | 1.3
* CCN(C(=O)c1cnc(/C=N/OC(C)C)n1C)c1cccnc1 [I-1-041] | 1.81
* CCN(C(=O)c1cnc(/C=N/OCC2CC2)n1C)c1cccnc1 [I-1-042] | 1.86
* CCONC(=O)c1ncc(C(=O)N(C)c2cccnc2)n1C [I-1-078] | 0.67
* CN(C(=O)c1cnc(C2COC(C)(C)OC2)n1C)c1cccnc1 [I-1-016] | 1.48

---

- assay-procedure: log P by HPLC on reversed-phase column (C18), EEC directive 79/831 Annex V.A8
- Assay type: physicochemical
- particulars: neutral range, pH 7.8, HPLC C18, 43° C.; preparation examples; read-out: log P[n]
Measured chromatographic logP, listed per entry.
reported-endpoint: chromatographic logP

• COC(=O)N(C)/N=C/c1ncc(C(=O)N(C)c2cccnc2)n1C = 1.08
• COC(=O)c1ncc(C(=O)N(C)c2cccnc2)n1C = 0.84

---

Measured logP [n], listed per entry.
- assay-procedure: log P by HPLC on reversed-phase column (C18), EEC directive 79/831 Annex V.A8
- Format: physicochemical
- particulars: pH 7.8
reported-endpoint: logP [n]

• CN(C(=O)c1cnc(/C=N/OCC(C)(C)C)n1C)c1cccnc1 = 2.22
• CCCO/N=C/c1ncc(C(=O)N(CC)c2cccnc2)n1C = 1.85
• CN(C(=O)c1cnc(C(=O)NS(=O)(=O)C2CC2)n1C)c1cccnc1 = 0.72
• CCN(C(=O)c1cnc(C=O)n1C)c1cccnc1 = 0.97
• CN(C(=O)c1cnc(/C=N/OCc2ccccn2)n1C)c1cccnc1 = 1.26
• CC1COC(c2ncc(C(=O)N(C)c3cccnc3)n2C)O1 (centres unmarked) = 1.02
• CN(C(=O)c1cnc(/C=N/OC(C)(C)C)n1C)c1cccnc1 = 1.99
• CCN(C)C(=O)c1ncc(C(=O)N(c2cccnc2)C2CC2)n1C = 1.11
• CCC(=O)c1ncc(C(=O)N(C)c2cccnc2)n1C = 1.23
• CN(C(=O)c1cnc(C(=O)NCC(F)(F)F)n1C)c1cccnc1 = 1.42
• C#CCO/N=C/c1ncc(C(=O)N(C)c2cccnc2)n1C = 1.83
• CCCCO/N=C/c1ncc(C(=O)N(C)c2cccnc2)n1C = 2.08
• CN(C(=O)c1cnc(C2OCCCS2)n1C)c1cccnc1 (centres unmarked) = 1.13
• CN(C(=O)c1cnc(/C=N/NC(=O)OCc2ccccc2)n1C)c1cccnc1 = 1.63
• CN(C(=O)c1cnc(C2OCCO2)n1C)c1cccnc1 = 0.73
• CCN(C(=O)c1cnc(C2OCC(C)(C)CO2)n1C)c1cccnc1 = 1.61
• CN(C(=O)c1cnc(/C=N/OCC(F)(F)F)n1C)c1cccnc1 = 1.68
